biological target: P. falciparum aldolase (Plasmodium falciparum, UniProt Q7KQL9); construct: made in house; assay: biochemical; assay type: binding; conditions: biolayer interferometry (Octet Red), biotinylated CTD on streptavidin sensor, aldolase 0.05–250 μM, 100 mM Tris-HCl pH 8.0, 25°C; mean of duplicate reactions
Sequence (Q7KQL9 whole entry): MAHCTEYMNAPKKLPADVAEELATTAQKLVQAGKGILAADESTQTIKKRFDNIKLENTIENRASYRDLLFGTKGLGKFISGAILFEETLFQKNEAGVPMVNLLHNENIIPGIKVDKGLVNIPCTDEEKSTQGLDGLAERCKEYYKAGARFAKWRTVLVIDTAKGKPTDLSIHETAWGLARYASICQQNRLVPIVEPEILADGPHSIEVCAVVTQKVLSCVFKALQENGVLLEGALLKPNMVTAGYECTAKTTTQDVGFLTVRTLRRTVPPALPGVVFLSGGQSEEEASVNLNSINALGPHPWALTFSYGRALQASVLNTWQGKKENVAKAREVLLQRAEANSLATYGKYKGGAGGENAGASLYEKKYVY
Where no end group is shown, it is not given here. The star is where a group is joined. Biotin = O=C1N[C@H]2[C@H](CS[C@H]2CCCCC(=O)*)N1
readout-label: pKd
Units for pKd: none; it is -log10 of a concentration expressed in mol/L.

Entry Biotin-KNNKQEYDKEQEKQQQNDFVCDNNKMDDKSTQKYGRNQEEVMEIFFDNDYI [RH1 2921–2971] ; pKd = 5.21
